The reported numbers originate from ChEMBL document CHEMBL1926502.

assay: Cmax in human at 1.43 mg/kg, po; assay type: ADME, organism-based; set-up: dose 1.43 mg/kg, route oral; conditions: in vivo
Recorded Metric: Cmax (ng/mL)

structure_smiles_string=CCOc1ncc(S(=O)(=O)N2CCN(CC)CC2)cc1-c1nc2c(CC)n(CCOC)nc2c(=O)[nH]1 observed_value=205

----------
test: Oral bioavailability in dog at 1 mg/kg; assay type: ADME, organism-based, Canis lupus familiaris; conditions: in vivo
Measured bioavailability, listed per entry for reference.
Recorded Metric: bioavailability (%)

compound=CCOc1ncc(S(=O)(=O)N2CCN(CC)CC2)cc1-c1nc2c(CC)n(CCOC)nc2c(=O)[nH]1 recorded_metric=bioavailability measurement_units=% observed_value=55
compound="CCN1CCN(S(=O)(=O)c2cnc(OCCOC)c(-c3nc4c5n(nc4c(=O)[nH]3)CCCC5C)c2)CC1 (single isomer, unassigned; (-))" recorded_metric=bioavailability measurement_units=% observed_value=18

----------
test: Elimination half life in dog at 0.5 mg/kg, iv and 1 mg/kg, po; type: ADME, organism-based, Canis lupus familiaris; details: in vivo, read-out: beta t1/2 (converted)
Recorded Metric: half-life (h)

compound=CCOc1ncc(S(=O)(=O)N2CCN(CC)CC2)cc1-c1nc2c(CC)n(CCOC)nc2c(=O)[nH]1 observed_value=2.1
compound="CCN1CCN(S(=O)(=O)c2cnc(OCCOC)c(-c3nc4c5n(nc4c(=O)[nH]3)CCCC5C)c2)CC1 (single isomer, unassigned; (-))" observed_value=1.5

----------
Measured Ratio, listed per entry for reference.
tested on: Caco-2; assay: Efflux ratio of apparent permeability from apical to basolateral to basolateral to apical side of human Caco2 cells; format: ADME, cell-based
Recorded Metric: Ratio

molecule=CCc1c2nc(-c3cc(S(=O)(=O)N4CCN(CC)CC4)cnc3OCCOC)[nH]c(=O)c2nn1CCN1CCOCC1 observed_value=8
molecule=CCOc1ncc(S(=O)(=O)N2CCN(CC)CC2)cc1-c1nc2c(CC)n(CCN3CCOCC3)nc2c(=O)[nH]1 observed_value=11.2
molecule=CCc1c2nc(-c3cc(S(=O)(=O)N4CCN(C)CC4)cnc3OCCOC)[nH]c(=O)c2nn1CC(C)C observed_value=2.2
molecule=CCCCOc1ncc(S(=O)(=O)N2CCN(CC)CC2)cc1-c1nc2c(CC)n(CCN(C)C)nc2c(=O)[nH]1 observed_value=7
molecule=CCCCOc1ncc(S(=O)(=O)N2CCN(CC)CC2)cc1-c1nc2c(CC)n(C3CN(C)C3)nc2c(=O)[nH]1 observed_value=4
molecule=CCc1c2nc(-c3cc(S(=O)(=O)N4CCN(CC)CC4)cnc3OCCOC)[nH]c(=O)c2nn1CCOC observed_value=4.2
molecule="CCN1CCN(S(=O)(=O)c2cnc(OCCOC)c(-c3nc4c5n(nc4c(=O)[nH]3)CCCC5C)c2)CC1 (single isomer, unassigned; (-))" observed_value=1.5
molecule=CCc1c2nc(-c3cc(S(=O)(=O)N4CCN(CC)CC4)cnc3OCC(C)C)[nH]c(=O)c2nn1CCOC observed_value=1.1
molecule=CCc1c2nc(-c3cc(S(=O)(=O)N4CCN(CC)CC4)cnc3OCCOC)[nH]c(=O)c2nn1CC(C)C observed_value=2.5

----------
Measured pIC50, listed per entry for reference.
target: cGMP-specific 3',5'-cyclic phosphodiesterase (Homo sapiens, UniProt O76074); assay: Inhibition of human PDE5 isolated from corpus cavernosum after 30 to 60 mins by scintillation counting method
pIC50: −log10 of the molar value.
Recorded Metric: pIC50

structure_smiles_string=CCCn1nc2c(=O)[nH]c(-c3cc(S(=O)(=O)N4CCN(CC)CC4)cnc3OCCOC)nc2c1CC subject_of_test="cGMP-specific 3',5'-cyclic phosphodiesterase (Homo sapiens, UniProt O76074)" recorded_metric=pIC50 observed_value=8.74
structure_smiles_string=CCCOc1ncc(S(=O)(=O)N2CCN(CC)CC2)cc1-c1nc2c(CC)n(CCOC)nc2c(=O)[nH]1 subject_of_test="cGMP-specific 3',5'-cyclic phosphodiesterase (Homo sapiens, UniProt O76074)" recorded_metric=pIC50 observed_value=9.16
structure_smiles_string=CCOc1ncc(S(=O)(=O)N2CCN(CC)CC2)cc1-c1nc2c(CC)n(CCN3CCOCC3)nc2c(=O)[nH]1 subject_of_test="cGMP-specific 3',5'-cyclic phosphodiesterase (Homo sapiens, UniProt O76074)" recorded_metric=pIC50 observed_value=9.07
structure_smiles_string=CCCCOc1ncc(S(=O)(=O)N2CCN(CC)CC2)cc1-c1nc2c(CC)n(C3CN(C)C3)nc2c(=O)[nH]1 subject_of_test="cGMP-specific 3',5'-cyclic phosphodiesterase (Homo sapiens, UniProt O76074)" recorded_metric=pIC50 observed_value=9.11
structure_smiles_string=CCc1c2nc(-c3cc(S(=O)(=O)N4CCN(CC)CC4)cnc3OCCOC)[nH]c(=O)c2nn1C1CCC1 subject_of_test="cGMP-specific 3',5'-cyclic phosphodiesterase (Homo sapiens, UniProt O76074)" recorded_metric=pIC50 observed_value=8.75
structure_smiles_string=CCc1c2nc(-c3cc(S(=O)(=O)N4CCN(CC)CC4)cnc3OCC(C)C)[nH]c(=O)c2nn1CCOC subject_of_test="cGMP-specific 3',5'-cyclic phosphodiesterase (Homo sapiens, UniProt O76074)" recorded_metric=pIC50 observed_value=9.16
structure_smiles_string=CCCn1nc2c(=O)[nH]c(-c3cc(S(=O)(=O)N4CCN(C)CC4)cnc3OCCOC)nc2c1CC subject_of_test="cGMP-specific 3',5'-cyclic phosphodiesterase (Homo sapiens, UniProt O76074)" recorded_metric=pIC50 observed_value=8.36
